Target system: GABA-A receptor; alpha-2/beta-3/gamma-2 (Homo sapiens, UniProt P18507+P28472+P47869)
Sequence (P18507 whole entry): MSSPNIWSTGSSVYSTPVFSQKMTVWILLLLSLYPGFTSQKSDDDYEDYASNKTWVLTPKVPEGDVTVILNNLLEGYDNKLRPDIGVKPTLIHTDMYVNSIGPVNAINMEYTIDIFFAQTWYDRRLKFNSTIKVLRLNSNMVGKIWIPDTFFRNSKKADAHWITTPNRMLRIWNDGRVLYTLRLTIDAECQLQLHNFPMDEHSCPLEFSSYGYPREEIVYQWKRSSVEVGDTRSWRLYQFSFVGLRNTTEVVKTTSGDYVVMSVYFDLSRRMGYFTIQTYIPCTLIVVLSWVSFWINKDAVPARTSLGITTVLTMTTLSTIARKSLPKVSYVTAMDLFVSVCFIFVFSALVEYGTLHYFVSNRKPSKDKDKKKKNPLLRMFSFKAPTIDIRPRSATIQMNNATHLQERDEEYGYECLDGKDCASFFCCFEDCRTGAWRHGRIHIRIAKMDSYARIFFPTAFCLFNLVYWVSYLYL
Sequence (P28472 whole entry): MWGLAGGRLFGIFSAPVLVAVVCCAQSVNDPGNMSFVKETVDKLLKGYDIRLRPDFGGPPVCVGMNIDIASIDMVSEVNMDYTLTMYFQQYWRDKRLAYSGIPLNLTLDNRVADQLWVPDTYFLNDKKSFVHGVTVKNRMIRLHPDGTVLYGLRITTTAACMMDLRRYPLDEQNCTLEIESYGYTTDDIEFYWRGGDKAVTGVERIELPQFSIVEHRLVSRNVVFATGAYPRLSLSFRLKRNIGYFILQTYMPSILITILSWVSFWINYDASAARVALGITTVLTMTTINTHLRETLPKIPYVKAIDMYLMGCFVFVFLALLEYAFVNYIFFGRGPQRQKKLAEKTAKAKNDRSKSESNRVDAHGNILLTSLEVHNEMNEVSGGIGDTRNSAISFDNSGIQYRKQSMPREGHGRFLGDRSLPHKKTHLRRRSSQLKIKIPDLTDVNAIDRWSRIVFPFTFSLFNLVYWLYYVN
Sequence (P47869 whole entry): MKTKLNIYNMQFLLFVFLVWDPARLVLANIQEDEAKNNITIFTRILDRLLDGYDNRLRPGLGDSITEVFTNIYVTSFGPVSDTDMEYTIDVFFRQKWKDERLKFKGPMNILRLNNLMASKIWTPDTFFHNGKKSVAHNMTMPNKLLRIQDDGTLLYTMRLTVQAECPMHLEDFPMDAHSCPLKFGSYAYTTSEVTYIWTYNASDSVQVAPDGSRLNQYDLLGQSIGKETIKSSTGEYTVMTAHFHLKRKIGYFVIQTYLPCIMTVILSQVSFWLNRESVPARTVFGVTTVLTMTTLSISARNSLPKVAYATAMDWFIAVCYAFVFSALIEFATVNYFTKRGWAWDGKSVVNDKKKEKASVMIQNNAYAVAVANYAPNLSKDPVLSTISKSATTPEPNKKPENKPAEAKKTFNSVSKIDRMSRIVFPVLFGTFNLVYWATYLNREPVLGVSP
Procedure text: Binding affinity to human recombinant gamma-aminobutyric-acid (GABA) A receptor alpha-2-beta-3-gamma-2
Reported log10 Ki values for the following compounds.
Quantity measured: log10 Ki (log10 of the value in nM)

| Smiles entry | log10 Ki |
| --- | --- |
| COC(=O)c1cc2c3cc(NC4CCCCC4)ccc3nc-2c[nH]1 | 1.24 |
| CCOC(=O)c1[nH]cc2nc3ccc(OCc4ccc5ccccc5c4)cc3c-2c1CC | 2.46 |
| CCOC(=O)c1[nH]cc2nc3ccc(O)cc3c-2c1COC | 0.73 |
| Clc1cc2c(cn1)[nH]c1ccccc12 | 2.10 |
| COc1ccc2ncc3c(=O)n(-c4ccccc4)[nH]c3c2c1 | -1.00 |
| N#CSc1ccc2[nH]c3cnc(SC#N)cc3c2c1 | 2.63 |
| CN1C(=O)CN=C(c2ccccc2)c2ccccc21 | 2.14 |
| c1ccc2c(c1)[nH]c1cnc3c4ccncc4[nH]c3c12 | 1.38 |
| COc1ccc2c(c1)ncc1c(=O)n(-c3ccccc3)[nH]c12 | 0.12 |
| Cc1nnc2n1-c1ccc(Cl)cc1C(c1ccccc1Cl)=NC2 | -0.23 |
| c1cnc2c3[nH]cc4[nH]c5ccccc5c4c-3nc2c1 | 2.07 |
| O=C1CN=C(c2ccccc2)c2ccccc2N1 | 2.37 |
| CC(C)(C)OC(=O)c1ncn2c1[C@@H]1CCCN1C(=O)c1c(Br)cccc1-2 | -0.19 |
| O=c1c2cnc3ccccc3c2[nH]n1-c1ccc(Br)cc1 | -0.68 |
| C#Cc1ccc2c(c1)C(c1ccccc1)=NCC(=O)N2C | 1.62 |
| COCc1c(SC#N)[nH]cc2nc3ccc(OCc4ccccc4)cc3c1-2 | 1.92 |
| CN1C(=O)CN=C(c2cccs2)c2cc(F)ccc21 | 2.33 |
| O=[N+]([O-])c1ccc2[nH]c3c[nH]c4c5ccccc5nc-4c3c2c1 | 2.70 |
| CCOC(=O)c1[nH]cc2nc3ccc(OC)cc3c-2c1CC | 0.46 |
| CN1C(=O)CN=C(c2ccccc2)c2cc(Br)ccc21 | 0.97 |
| Fc1ccc2c(c1)[nH]c1c3c4ccccc4nc-3c[nH]c12 | 1.02 |

----------
Procedure text: Selectivity ratio of alpha1 beta-3 gamma2 GABA A / BzR and alpha5 beta-3 gamma2 GABA A / BzR
Quantity measured: Ratio

| Smiles entry | Quantity measured | Comparison operator | Observed |
| --- | --- | --- | --- |
| CCOC(=O)c1ncn2c1CN(C)C(=O)c1cc(C#N)ccc1-2 | Ratio | = | 1.7 |
| CN1Cc2c(C(=O)OC(C)(C)C)ncn2-c2ccc(N=[N+]=[N-])cc2C1=O | Ratio | = | 24.3 |
| O=C1CN=C(c2ccccc2)c2ccccc2N1 | Ratio | = | 2.04 |
| CCOC(=O)c1ncn2c1[C@@H]1CCCN1C(=O)c1cc(OC)ccc1-2 | Ratio | = | 108 |
| C#Cc1ccc2c(c1)C(c1ccccc1)=NCC(=O)N2C | Ratio | = | 11.2 |
| CCc1ncn2c1CN(C)C(=O)c1cc(Cl)ccc1-2 | Ratio | = | 2.2 |
| CC(C)N(Cc1ncn2c1CN(C)C(=O)c1cc(Cl)ccc1-2)C(C)C | Ratio | = | 3.2 |
| CN1C(=O)CN=C(c2ccccc2)c2cc(C#N)ccc21 | Ratio | = | 1.2 |
| C#Cc1ccc2c(c1)C(=O)N1CCC[C@H]1c1c(-c3nc(C)no3)ncn1-2 | Ratio | = | 24 |
| O=C1CN=C(c2ccccc2[N+](=O)[O-])c2cc(Br)ccc2N1 | Ratio | = | 0.08 |
| CN1Cc2c(CCl)ncn2-c2ccc(Cl)cc2C1=O | Ratio | > | 10.5 |
